biological target: CSF-1R (Homo sapiens (Human)); assay: Biochemical HTRF kinase assay, CSF-1R; conditions: Table 2; recombinant human CSF-1R;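 also: enzyme incubated with inhibitor plus a substrate and ATP mix for one hour at room temperature before HTRF detection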
Sequence (P07333 20-972): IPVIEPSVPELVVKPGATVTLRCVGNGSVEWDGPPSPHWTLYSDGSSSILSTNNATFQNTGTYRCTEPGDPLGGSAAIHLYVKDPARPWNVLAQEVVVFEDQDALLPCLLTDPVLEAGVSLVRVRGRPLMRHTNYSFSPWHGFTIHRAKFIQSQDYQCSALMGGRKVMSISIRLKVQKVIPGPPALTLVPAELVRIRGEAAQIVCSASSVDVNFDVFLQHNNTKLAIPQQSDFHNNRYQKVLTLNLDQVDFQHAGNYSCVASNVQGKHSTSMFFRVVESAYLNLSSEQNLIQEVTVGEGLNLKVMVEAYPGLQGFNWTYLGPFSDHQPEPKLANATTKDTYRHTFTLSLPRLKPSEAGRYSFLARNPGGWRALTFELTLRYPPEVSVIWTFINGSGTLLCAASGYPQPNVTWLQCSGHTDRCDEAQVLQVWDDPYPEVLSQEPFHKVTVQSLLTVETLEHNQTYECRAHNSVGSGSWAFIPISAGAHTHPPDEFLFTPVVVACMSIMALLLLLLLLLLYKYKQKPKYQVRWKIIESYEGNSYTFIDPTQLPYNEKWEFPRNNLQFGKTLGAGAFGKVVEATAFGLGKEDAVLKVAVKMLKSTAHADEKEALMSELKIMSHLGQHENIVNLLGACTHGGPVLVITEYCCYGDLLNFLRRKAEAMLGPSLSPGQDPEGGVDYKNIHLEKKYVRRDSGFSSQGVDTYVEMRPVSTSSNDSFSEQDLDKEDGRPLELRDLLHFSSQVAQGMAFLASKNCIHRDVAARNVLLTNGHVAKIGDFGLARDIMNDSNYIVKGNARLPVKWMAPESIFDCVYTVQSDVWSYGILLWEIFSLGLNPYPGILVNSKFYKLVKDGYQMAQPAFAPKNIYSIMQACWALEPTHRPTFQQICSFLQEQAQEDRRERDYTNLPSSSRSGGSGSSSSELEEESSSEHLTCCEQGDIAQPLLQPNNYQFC

{"compound": "COc1cnc2c(Cc3cnc(OCc4ccc(OC(F)F)cn4)c(OC)c3)ccnc2c1", "IC50": "2.2 nM"}
{"compound": "COc1ccc(COc2ncc(Cc3ccnc4cc(OC)cnc34)cc2OC)nc1", "IC50": "2.1 nM"}
{"compound": "COc1ccc(COc2ncc(Cc3ccnc4cc(OC)ncc34)cc2OC)nc1", "IC50": "49.7 nM"}
{"compound": "COc1ccc2c(Cc3ccc(OCc4ccn(C)c(=O)c4)c(OC)c3)ccnc2c1", "IC50": "40 nM"}
{"compound": "COc1ccc(COc2ncc(Cc3ccnc4cc(-c5cnc(C)s5)cnc34)cc2OC)nc1", "IC50": "12.6 nM"}
{"compound": "COc1cnc2c(Cc3ccc4nc(C5CCOCC5)cn4c3)ccnc2c1", "IC50": "> 1000 nM"}
{"compound": "COc1ccc2c(Cc3ccc(OCc4cccc(C(F)(F)F)c4)c(OC)c3)ccnc2c1", "IC50": "117 nM"}
{"compound": "COc1ccc2c(Cc3ccc(OCc4cn5ccccc5n4)c(OC)c3)ccnc2c1", "IC50": "9.4 nM"}
{"compound": "COc1cnc2c(Cc3cnc(OCc4cnc(OC)cn4)c(OC)c3)ccnc2c1", "IC50": "8.6 nM"}
{"compound": "COc1cnc2c(Cc3cnc(OCc4ccc(C5CC5(F)F)cn4)c(OC)c3)ccnc2c1 (stereo not drawn)", "IC50": "3 nM"}
{"compound": "COc1ccc(COc2ncc(Cc3ccnc4cc(-c5ccccn5)cnc34)cc2OC)nc1", "IC50": "11.3 nM"}
{"compound": "COc1ccc(COc2ccc(Cc3ccnc4ccc(F)cc34)cc2OC)cc1", "IC50": "25 nM"}
{"compound": "COc1cnc2c(Cc3cnc(OCc4cc(C(F)(F)F)n(C)n4)c(OC)c3)ccnc2c1", "IC50": "2 nM"}
{"compound": "COc1ccc(COc2ncc(Cc3ccnc4cc(-c5cccnc5)cnc34)cc2OC)nc1", "IC50": "9.4 nM"}
{"compound": "COc1cnc2c(Cc3cnc(OCc4ccnn4C)c(OC)c3)ccnc2c1", "IC50": "62.1 nM"}
{"compound": "COc1cnc2c(Cc3cnc(OCc4cc(C)n(C5COC5)n4)c(OC)c3)ccnc2c1", "IC50": "4.9 nM"}
{"compound": "COc1ccc(COc2ncc(Cc3ccnc4cc(C#N)cnc34)cc2OC)nc1", "IC50": "26.9 nM"}
{"compound": "COc1ccc(COc2ncc(Cc3ccnc4cc(F)cnc34)cc2OC)nc1", "IC50": "21.8 nM"}
